# Assayed system: mouse semaphorin 3A (Sema3A) (Mus musculus)
# Sequence (O08665 21-772): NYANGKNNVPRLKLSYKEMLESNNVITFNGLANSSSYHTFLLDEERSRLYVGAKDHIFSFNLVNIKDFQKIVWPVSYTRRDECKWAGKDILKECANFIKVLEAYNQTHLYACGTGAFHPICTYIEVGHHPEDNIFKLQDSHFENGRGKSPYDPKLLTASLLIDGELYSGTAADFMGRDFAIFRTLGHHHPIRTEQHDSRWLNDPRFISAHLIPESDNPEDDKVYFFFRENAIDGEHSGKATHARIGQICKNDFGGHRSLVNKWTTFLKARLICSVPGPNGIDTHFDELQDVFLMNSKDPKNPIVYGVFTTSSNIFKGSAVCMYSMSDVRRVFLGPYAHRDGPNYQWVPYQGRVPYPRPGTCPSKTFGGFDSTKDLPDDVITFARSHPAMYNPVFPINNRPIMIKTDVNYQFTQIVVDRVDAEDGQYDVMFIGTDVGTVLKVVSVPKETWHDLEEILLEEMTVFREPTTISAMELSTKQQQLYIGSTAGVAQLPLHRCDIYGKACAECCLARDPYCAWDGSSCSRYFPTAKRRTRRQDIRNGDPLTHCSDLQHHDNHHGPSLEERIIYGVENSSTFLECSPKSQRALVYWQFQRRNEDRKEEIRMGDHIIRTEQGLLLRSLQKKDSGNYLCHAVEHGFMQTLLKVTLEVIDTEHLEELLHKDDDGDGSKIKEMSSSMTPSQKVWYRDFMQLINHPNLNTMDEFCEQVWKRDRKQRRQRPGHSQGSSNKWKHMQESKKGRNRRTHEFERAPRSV
# Assay summary: Suppression of growth cone collapse activity of Sema3A (chick embryo dorsal root ganglions)
# Type: cell-based
# Condition context: E7 chick embryo dorsal root ganglions; 2 units/ml Sema3A added 1 hour after compound; concentration where collapse rate = (A+B)/2; read-out: IC50 of inhibition of the growth cone collapse activity of Sema3A (converted)
Metric: IC50 (nM)

# Molecule, IC50 [nM]
rows = [
    ("CC(=O)c1cc2c(=O)c3cc(O)c(O)cc3oc2c(C(C)=O)c1-c1coc2cc(O)c(O)cc2c1=O [SPF-3059-26]", 409),
    ("CC(=O)c1c(C)c(C(=O)C2COc3cc(O)c(O)cc3C2=O)cc2c(=O)c3cc(O)c(O)cc3oc12 (stereo not shown) [SPF-3059-30]", 408),
    ("CC(=O)c1cc2c(=O)c3c(C(=O)O)c(O)c(O)cc3oc2c(C(C)=O)c1-c1coc2cc(O)c(O)cc2c1=O [SPF-3059-24]", 188),
    ("CC(=O)c1c(C)c(C(=O)C2COc3cc(O)c(O)c(C(=O)O)c3C2=O)cc2c(=O)c3cc(O)c(O)cc3oc12 (stereo not shown) [SPF-3059-3]", 374),
    ("COC(=O)c1cc(O)cc2oc(-c3cc4c(=O)c5c(C(=O)O)c(O)c(O)cc5oc4c(C(C)=O)c3C)cc(=O)c12 [SPF-3059-35]", 3660),
    ("CC(=O)c1cc2c(=O)c3c(C(=O)O)c(O)c(O)cc3oc2c(C(C)=O)c1-c1coc2cc(O)cc(C(=O)O)c2c1=O [SPF-3059-12]", 3570),
]

P = CC(=O)c1cc(-c2c(C(C)=O)cc3c(=O)c4cc(O)c(O)cc4oc3c2C(C)=O)cc(C(=O)c2cc(O)c(O)cc2O)c1O [SPF-3059-36]
Q = CC(=O)c1cc(-c2c(C(C)=O)cc3c(=O)c4c(C(=O)O)c(O)c(O)cc4oc3c2C(C)=O)cc(C(=O)c2cc(O)c(O)cc2O)c1O [SPF-3059-27]
*Q* Lowest IC50? choose P or Q State the label of the item chosen.
*A* Q
(Q: 778 nM, P: 6680 nM)
